Entry source: patent US20200095340A1

# TARGET DESC: biotinylated human DLL3 protein expressed as a human IgG1 fusion protein (human) (UniProt Q9NYJ7)
# Sequence (Q9NYJ7 other isoform, or with tags, fused parts or gaps): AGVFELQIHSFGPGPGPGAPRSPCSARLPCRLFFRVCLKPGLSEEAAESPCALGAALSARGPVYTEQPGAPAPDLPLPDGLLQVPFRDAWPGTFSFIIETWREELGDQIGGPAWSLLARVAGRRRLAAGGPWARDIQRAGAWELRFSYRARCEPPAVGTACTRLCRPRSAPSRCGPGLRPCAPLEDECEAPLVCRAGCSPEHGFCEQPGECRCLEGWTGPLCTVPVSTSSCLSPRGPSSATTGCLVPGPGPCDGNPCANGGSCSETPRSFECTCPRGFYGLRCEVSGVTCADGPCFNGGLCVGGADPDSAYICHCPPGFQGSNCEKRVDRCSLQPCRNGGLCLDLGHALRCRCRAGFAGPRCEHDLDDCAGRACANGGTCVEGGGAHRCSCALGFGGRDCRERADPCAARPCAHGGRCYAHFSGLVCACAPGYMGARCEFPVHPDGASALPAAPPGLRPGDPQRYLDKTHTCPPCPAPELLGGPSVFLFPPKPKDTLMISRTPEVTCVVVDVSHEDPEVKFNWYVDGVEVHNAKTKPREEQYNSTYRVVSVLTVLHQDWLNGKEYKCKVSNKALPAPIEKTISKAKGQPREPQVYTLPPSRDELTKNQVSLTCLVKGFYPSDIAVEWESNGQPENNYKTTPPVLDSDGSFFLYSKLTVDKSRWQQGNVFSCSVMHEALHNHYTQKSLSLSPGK
# ASSAY REMARKS: Octet BLI; biotinylated huDLL3-IgG1 fusion on streptavidin tips; single 50 nM; conditioned medium
Recorded Kd values for a group of binders are listed next.
Report only the number, with the unit nM understood.

Task item: Entry anti-DLL3 trispecific protein 4C01 (protein, part only; not given: anti-CD3 fragment and anti-albumin sdAb, part only) chain, part: EVQLVESGGGLVQPGGSLTLSCAASGSSVRFLSMAWYRQAPGKKRELVAGISADGSTVYIDSVKGRFTISRDNAKNSVYLQMNSLRAEDTAVYYCYAYRWKTRYTYWGQGTLVTVSSGGGGSGGGSGGGGSGGGSHHHHHH : reported Kd = ?
Reply: 5.1

Task item: Lookup anti-DLL3 trispecific protein 2C06 (protein, part only; not given: CD3 binder and albumin binder, part only) chain, part: EVQLVESGGGLVQPGGSLTLSCVASGSTNSINAMGWYRRAPGKQRELVAGISSDGSKVYKDSVKGRFTISRDNAKNSVYLQMNSLRAEDTAVYYCYYYRTVSGSSMRYWGQGTLVTVSSGGGGSGGGSGGGGSGGGSHHHHHH
Reply: 6.7

Task item: Lookup anti-DLL3 trispecific protein 1D01 (protein, part only; not given: CD3 binder and albumin binder, part only) chain, part: EVQLVESGGGLVQPGGSLTLSCVASGSTSDINAMGWYRRAPGKQRELVAGISSDKSKVYADSVKGRFTISRDNAKNSVYLQMNSLRAEDTAVYYCYYFRTVRGSSMRYWGQGTLVTVSSGGGGSGGGSGGGGSGGGSHHHHHH
Reply: 5.8

Task item: Lookup anti-DLL3 trispecific protein 2H03 (protein, part only; not given: CD3 binder and albumin binder, part only) chain, part: EVQLVESGGGLVQPGGSLTLSCVASGSTSSINAMAWYRRAPGKQRELVAGISSDGSKVYADSVKGRFTISRDNAKNSVYLQMNSLRAEDTAVYYCYYFRQVSGSSMRYWGQGTLVTVSSGGGGSGGGSGGGGSGGGSHHHHHH
Reply: 5.3
